- STUDY_SYSTEM: hGLP-1R (Homo sapiens, UniProt P43220)
- Sequence (P43220 24-463): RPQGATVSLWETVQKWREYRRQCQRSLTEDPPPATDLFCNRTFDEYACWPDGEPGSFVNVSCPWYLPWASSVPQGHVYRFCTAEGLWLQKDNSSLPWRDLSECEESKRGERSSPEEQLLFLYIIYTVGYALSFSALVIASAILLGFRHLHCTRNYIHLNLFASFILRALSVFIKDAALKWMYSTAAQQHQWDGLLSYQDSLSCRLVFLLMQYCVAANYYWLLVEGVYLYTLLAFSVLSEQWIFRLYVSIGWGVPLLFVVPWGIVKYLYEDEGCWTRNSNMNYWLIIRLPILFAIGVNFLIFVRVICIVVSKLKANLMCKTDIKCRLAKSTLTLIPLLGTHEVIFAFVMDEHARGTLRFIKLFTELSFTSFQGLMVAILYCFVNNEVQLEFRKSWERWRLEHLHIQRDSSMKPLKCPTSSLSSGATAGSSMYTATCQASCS
- ASSAY_TEXT: cell-based or functional assay
Starred links: 1 amine or outer side, 2 acyl side, 3 side chain; linkers in the order of their positions; H or OH if unused. Non-standard residues stand in square brackets, D forms with d. Groups on a side chain read outwards from the residue. No end group written: not given here. *: point of attachment. C20 diacid = O=C(O)CCCCCCCCCCCCCCCCCCC(=O)*; γGlu = O=C(O)[C@H](CCC(=O)[*:2])N[*:1]; αMeL = CC(C)C[C@](C)(N)C(=O)O; AEEA = NCCOCCOCC(=O)O; Aib = CC(C)(N)C(=O)O
Kindly supply the reported cAMP Rel EC50 (1% HSA) values for the records listed here.
The reply should be a number in nM, with the unit left off.

So, YXQGTFTSDXSQXLDXKAQXAFIEYLIQXGPSSGEPPPSGSEE (non-natural residues; lipidated Lys AEEA-γGlu-C18 diacid; C-term amide; synthetic construct; SITE 2: note = 2-Aminoisobutyric Acid; SITE 10: note = 3-(4-Pyridyl)-L-alanine; SITE 13: note = alpha-methyl-leucine; SITE 16: note = L-ornithine; SITE 17: note = Lysine is chemically modified through conjugation of the epsilon-amino group of the Lysine side chain with (2-[2-(2-) [Example 1096] ? Its cAMP Rel EC50 (1% HSA) was 194

Documented cAMP Rel EC50 (1% HSA) of YXQGTFTSDFSXXLDXKAQXAFIEXLLEGGPSSGAPPPGGSEE (non-natural residues; Lys acylated C18 diacid via γGlu2; C-term amide; synthetic construct; SITE 2: note = 2-Aminoisobutyric Acid; SITE 12: note = L-ornithine; SITE 13: note = alpha-methyl-leucine; SITE 16: note = L-ornithine; SITE 17: note = Lysine is chemically modified through conjugation of the epsilon-amino group of the Lysine side chain with (gamma-Glu)2-CO-(CH2)) [Example 1050] : 1240

Recorded cAMP Rel EC50 (1% HSA) (binder Y[Aib]QGTFTSDYSK[αMeL]LDKK([AEEA-γGlu-C20 diacid])AQQAFIEYLIAGGPSSGAPPPSSE-NH2 [Example 322] ): 135

// cAMP Rel EC50 (1% HSA) lookup, binder = YXQGTXTSDXSILLDKKAQXAFIEXLEEGGPSSGAPPPSGTGE (synthetic construct; SITE 2: note = 2-Aminoisobutyric Acid; SITE 6: note = alpha-methyl-2-fluoro-L-phenylalanine; SITE 10: note = 3-(4-Pyridyl)-L-alanine; SITE 17: note = Lysine is chemically modified through conjugation of the epsilon-amino group of the Lysine side chain with (2-[2-(2-Amino-ethoxy))) [Example 669] , result: 27.3

Summary for this binder, YXQGTFTSDXSQXLDKKAQXAFIEYLLEAGPSSGAPPPSGX (synthetic construct; SITE 2: note = 2-Aminoisobutyric Acid; SITE 10: note = 3-(4-Pyridyl)-L-alanine; SITE 13: note = alpha-methyl-leucine; SITE 17: note = Lysine is chemically modified through conjugation of the epsilon-amino group of the Lysine side chain with (2-[2-(2-Amino-ethoxy)-ethoxy]-acetyl)) [Example 822] : cAMP Rel EC50 (1% HSA) is 322

The recorded cAMP Rel EC50 (1% HSA) for entry YXQGTFTSDXSXXLDXKAQXAFIEXLLEGGPSSGAPPPSGSEE (non-natural residues; lysine acylated with C18 diacid; C-terminal amide; synthetic construct; SITE 2: note = 2-Aminoisobutyric Acid; SITE 10: note = 3-(4-Pyridyl)-L-alanine; SITE 12: note = L-ornithine; SITE 13: note = alpha-methyl-leucine; SITE 16: note = L-ornithine; SITE 17: note = Lysine is chemically modified through conjugation of the epsilon-amino group of the Lys) [Example 1067] equals 2610
